Test: Half life in mouse at 60 mg/kg, po
Assay type: ADME, organism-based
Parameters: dose 60 mg/kg, route oral
Conditions: in vivo
measurementName: half-life (h)
Kindly answer with a numeric value in h, unit omitted.

Lab note: "c1ccc(CNc2ncccc2-c2nnc(Nc3ccc4c(c3)OCCO4)o2)nc1" gave half-life of 2.2

---

For each entry below, report its IC50 value.
Molecular target: Tubulin
Assay: Inhibition of tubulin polymerization
Type: functional, Homo sapiens
# output: bare number, implied unit µM

Note to self: IC50 recorded for "c1ccc(CNc2ncccc2-c2nnc(Nc3ccc4c(c3)OCCO4)o2)nc1" was 1.9

Entry under test: c1cnc(NCC2CCCO2)c(-c2nnc(Nc3ccc4c(c3)OCO4)o2)c1 (stereo unspecified) . Its IC50 was 15.5

Note to self: IC50 recorded for "c1cncc(CNc2ncccc2-c2nnc(Nc3ccc4c(c3)OCCO4)o2)c1" was 0.7

Form field IC50, entry "c1cncc(CNc2ncccc2-c2nnc(Nc3ccc4c(c3)OCO4)o2)c1" : 8.8

The molecule listed as "c1ccc(CNc2nccnc2-c2nnc(Nc3ccc4c(c3)OCCO4)o2)nc1" shows IC50 equal to 2

Measured IC50 of "c1cnc(NCc2ccncc2)c(-c2nnc(Nc3ccc4c(c3)OCCO4)o2)c1" : 29.9

Reported IC50 for "Fc1ccc(CNc2ncccc2-c2nnc(Nc3ccc4c(c3)OCCO4)o2)cc1F" was 0.7

Entry "c1cnc(NCc2cnccn2)c(-c2nnc(Nc3ccc4c(c3)OCO4)o2)c1" , IC50 reported as 9.6

In plain terms, "c1ccc(COc2ncccc2-c2nnc(Nc3ccc4c(c3)OCCO4)o2)nc1" has a documented IC50 of 18.1

Sure, the documented IC50 for "CS(=O)(=O)Nc1ccc(CNc2ncccc2-c2nnc(Nc3ccc4c(c3)OCO4)o2)cc1" is 3.8

According to the records, this molecule "COc1ccc(CNc2ncccc2-c2nnc(Nc3ccc4c(c3)OCCO4)o2)cc1" displays IC50 of 1.6

Per the records, this molecule ( "CS(=O)(=O)Nc1ccc(CNc2ncccc2-c2nnc(Nc3ccc4c(c3)OCCO4)o2)cc1" ) has IC50 equal to 2

# IC50 of "c1cnc(NCc2cnccn2)c(-c2nnc(Nc3ccc4c(c3)OCCO4)o2)c1" = 2.2

Kindly note the recorded IC50 for "c1ccc(CNc2ccccc2-c2nnc(Nc3ccc4c(c3)OCCO4)o2)nc1" , which is 1.2

The reported value for "Fc1cnc(NCc2ccccn2)c(-c2nnc(Nc3ccc4c(c3)OCCO4)o2)c1" in terms of IC50 is 3.4

Note to self: IC50 recorded for "FC1(F)Oc2ccc(Nc3nnc(-c4cccnc4NCc4ccccn4)o3)cc2O1" was 13.3

Measured IC50 of "COc1ccc(Nc2nnc(-c3cccnc3NCc3ccccn3)o2)cc1" : 1.5
